Molecular target: UniProt:P21462
Sequence (P21462 whole entry): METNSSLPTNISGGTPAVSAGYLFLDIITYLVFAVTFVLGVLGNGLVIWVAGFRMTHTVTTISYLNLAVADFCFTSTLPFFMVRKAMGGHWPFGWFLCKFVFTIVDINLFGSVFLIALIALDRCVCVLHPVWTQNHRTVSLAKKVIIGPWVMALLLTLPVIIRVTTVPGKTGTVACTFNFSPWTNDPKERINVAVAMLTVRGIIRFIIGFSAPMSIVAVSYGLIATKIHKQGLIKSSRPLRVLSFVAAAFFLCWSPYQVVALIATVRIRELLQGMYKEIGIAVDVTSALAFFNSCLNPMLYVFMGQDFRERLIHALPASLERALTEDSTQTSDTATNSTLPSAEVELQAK
Test: Antagonist activity at FPR1 in human peripheral blood polymorphonuclear neutrophils assessed as inhibition of fMLF-induced ROS production at <500 nM preincubated for 5 mins followed fMLF stimulation by isoluminol/HRP-based chemiluminescence assay
The source made the active and inactive calls. No cut-off for these calls is given here. Peptide text beside a SMILES is read from it. * marks the point of attachment. RhodamineB = CCN(CC)c1ccc2c(-c3ccccc3C(=O)*)c3ccc(=[N+](CC)CC)cc-3oc2c1
propertyName: inhibition

Some entries whose results are on file:
>>> result("CCN(CC)c1ccc2c(-c3ccccc3C(=O)N[C@@H](CCCCN)C(=O)N[C@@H](Cc3ccccc3)C(=O)N[C@@H](CCCCN)C(=O)N[C@@H](Cc3ccccc3)C(=O)N[C@@H](CCCCN)C(=O)N[C@@H](Cc3ccccc3)C(=O)N[C@@H](CCCCN)C(=O)N[C@@H](Cc3ccccc3)C(=O)N[C@@H](CCCCN)C(=O)N[C@@H](Cc3ccccc3)C(=O)N[C@@H](CCCCN)C(=O)N[C@@H](Cc3ccccc3)C(N)=O)c3ccc(=[N+](CC)CC)cc-3oc2c1 (RhodamineB-KFKFKFKFKFKF-NH2)")
"inactive"
>>> result("CCN(CC)c1ccc2c(-c3ccccc3C(=O)N[C@@H](CCCCN)C(=O)N(CCC(=O)N[C@@H](CCCCN)C(=O)N(CCC(N)=O)Cc3ccccc3)Cc3ccccc3)c3ccc(=[N+](CC)CC)cc-3oc2c1")
"inactive"
>>> result("CCN(CC)c1ccc2c(-c3ccccc3C(=O)N[C@@H](CCCCN)C(=O)N(CCC(=O)N[C@@H](CCCCN)C(=O)N(CCC(=O)N[C@@H](CCCCN)C(=O)N(CCC(=O)N[C@@H](CCCCN)C(=O)N(CCC(=O)N[C@@H](CCCCN)C(=O)N(CCC(=O)N[C@@H](CCCCN)C(=O)N(CCC(=O)N[C@@H](CCCCN)C(=O)N(CCC(N)=O)Cc3ccccc3)Cc3ccccc3)Cc3ccccc3)Cc3ccccc3)Cc3ccccc3)Cc3ccccc3)Cc3ccccc3)c3ccc(=[N+](CC)CC)cc-3oc2c1")
"inactive"
>>> result("CCN(CC)c1ccc2c(-c3ccccc3C(=O)N[C@@H](CCCCN)C(=O)N(CCC(=O)N[C@@H](CCCCN)C(=O)N(CCC(=O)N[C@@H](CCCCN)C(=O)N(CCC(=O)N[C@@H](CCCCN)C(=O)N(CCC(=O)N[C@@H](CCCCN)C(=O)N(CCC(=O)N[C@@H](CCCCN)C(=O)N(CCC(=O)N[C@@H](CCCCN)C(=O)N(CCC(=O)N[C@@H](CCCCN)C(=O)N(CCC(N)=O)Cc3ccccc3)Cc3ccccc3)Cc3ccccc3)Cc3ccccc3)Cc3ccccc3)Cc3ccccc3)Cc3ccccc3)Cc3ccccc3)c3ccc(=[N+](CC)CC)cc-3oc2c1")
"inactive"

[ask] Which inhibition is listed for CCN(CC)c1ccc2c(-c3ccccc3C(=O)N[C@@H](CCCCN)C(=O)N(CCC(N)=O)Cc3ccccc3)c3ccc(=[N+](CC)CC)cc-3oc2c1 ?
[reply] inactive

The measurements presented in this section are drawn from ChEMBL document CHEMBL4011659.
